System: LOX IMVI melanoma
Assay: NCI tumour cell line growth inhibition, 48 h
propertyMeasured: TGI (µM)

>>> measurednumber("COC1=CC(=O)C(O)=C(CC2(C)C(C)CCC3(C)C2CCCC3(C)C)C1=O (stereo not given)")
23.2
>>> measurednumber("c1cc(OCCCCCOc2cccc(-c3nc4ccccc4[nH]3)c2)cc(-c2nc3ccccc3[nH]2)c1")
6.84
>>> measurednumber("CCN(CC)c1ccc(Cl)c2c1C(O)(C(C)C)C2(C)C (stereo not given)")
35.1

---

Tested on: HT29 colon
Experiment: NCI tumour cell line growth inhibition, 48 h
Catalogue of log10 TGI values
propertyMeasured: log10 TGI (log10 of the value in µM)

>>> measurednumber("COC(=O)C1=C(O)C(C(=O)OC)[C@@]2(O)[C@@H](C(=O)OC)[C@H](C)C[C@@H]1[C@@H]2C(=O)OC (stereo not given in full)")
1.85
>>> measurednumber("C(=C\\c1cc[n+](CCc2ccccc2)cc1)/c1ccccc1")
1.55
>>> measurednumber("O=c1c2cc(Br)ccc2nc(CNc2ccccc2)n1-c1ccccc1")
1.66
>>> measurednumber("COC(=O)/C=C1\\C(CO[Si](C)(C)C(C)(C)C)OC(n2ccc(=O)[nH]c2=O)C1O (stereo not given)")
1.91
>>> measurednumber("COc1ccccc1CNCCCN1C(=O)c2ccc3c4c(ccc(c24)C1=O)C(=O)N(CCCNCc1ccccc1OC)C3=O")
-0.37
